# Assay Target: TNF-alpha (Homo sapiens, UniProt P01375 P01375:77-233)
# Sequence (P01375 77-233, one chain of several): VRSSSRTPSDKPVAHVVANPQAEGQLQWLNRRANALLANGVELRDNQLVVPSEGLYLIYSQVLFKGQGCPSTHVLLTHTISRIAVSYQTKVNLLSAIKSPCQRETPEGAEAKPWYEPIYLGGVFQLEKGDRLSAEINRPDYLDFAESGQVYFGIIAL
# Procedure Text: flow; PBSMCT buffer, room temperature, 3 h
# Stated Conditions: tags: biotinylated; R&D Systems; chain copies: 3 (inferred)
pKd: −log10 of the molar value.
Assay Endpoint: pKd

1) B01 (ssDNA, 5'-amino, coupled to magnetic particles) DNA: ATCCAGAGTGACGCAGCAGGTTAAGGTGTAGGTCCGGGTGGGGGGGTGGGTTGGGGGACTGGTGGACACGGTGGCTTAGT :: 9.46
